Consider the following binders; for each one, report its koff.
assayed.target: T1, CD25 (R&D systems cat. #223-2A/CF) (UniProt P01589 22-213, limits assumed)
T1 construct: Bought soluble protein
T1 sequence (looked up): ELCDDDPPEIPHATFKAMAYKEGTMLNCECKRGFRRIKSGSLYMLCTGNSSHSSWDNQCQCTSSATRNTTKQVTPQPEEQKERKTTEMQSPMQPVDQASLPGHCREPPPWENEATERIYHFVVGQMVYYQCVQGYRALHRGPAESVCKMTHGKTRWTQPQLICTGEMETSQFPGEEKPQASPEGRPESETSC
assay: Biacore (SPR); antibody captured on Protein A, CD25 injected
The answer is to be given in s⁻¹; state only the numeric part.

Problem: What koff value was documented for this binder, anti-CD25 H1L1.6 (antibody, V domains shown, Single variant in the anti-CD25 H1L1 background; also called VL Q45R single variant) VH: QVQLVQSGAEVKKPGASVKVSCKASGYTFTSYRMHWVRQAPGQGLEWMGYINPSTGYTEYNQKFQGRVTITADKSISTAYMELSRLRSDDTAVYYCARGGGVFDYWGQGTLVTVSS VL: QIVLTQSPATLSLSPGERATLSCRASSSISYMHWFQQKPGQSPRLLIYTTSNLASGVPARFSGSGSGTDYTLTISSLQPEDFAVYYCHQRSTYPLTFGSGTKLEIK ?
Result: 0.00057

Problem: Item under review: anti-CD25 H1L1.9 (antibody, V domains shown, Single variant in the anti-CD25 H1L1 background; also called VL S43A single variant) VH: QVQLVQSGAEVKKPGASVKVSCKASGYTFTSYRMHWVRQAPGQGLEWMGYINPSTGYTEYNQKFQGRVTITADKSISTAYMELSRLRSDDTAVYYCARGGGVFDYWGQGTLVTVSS VL: QIVLTQSPATLSLSPGERATLSCRASSSISYMHWFQQKPGQAPQLLIYTTSNLASGVPARFSGSGSGTDYTLTISSLQPEDFAVYYCHQRSTYPLTFGSGTKLEIK . Reported koff?
Result: 0.00058

Problem: Bench note: what koff did anti-CD25 H1L1.14 (antibody, V domains shown, Single variant in the anti-CD25 H1L1 background; also called VL Y71F single variant) VH: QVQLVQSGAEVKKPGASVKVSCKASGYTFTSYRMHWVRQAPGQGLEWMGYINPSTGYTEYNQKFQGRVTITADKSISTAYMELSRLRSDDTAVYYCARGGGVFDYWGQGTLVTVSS VL: QIVLTQSPATLSLSPGERATLSCRASSSISYMHWFQQKPGQSPQLLIYTTSNLASGVPARFSGSGSGTDFTLTISSLQPEDFAVYYCHQRSTYPLTFGSGTKLEIK show?
Result: 0.00048
